- Target Desc: Jun-Jun bZIP WT (human, UniProt P05412 252-315)
- Sequence (P05412 252-315): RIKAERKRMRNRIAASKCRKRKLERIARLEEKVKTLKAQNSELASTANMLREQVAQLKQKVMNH
- Test Summary: ITC
Assay Metric: pKd
Give bare numbers, as −log10 of the molar value.

Can you look up the measured pKd of TRE duplex 15-mer (dsDNA) DNA 1: CGCGTGACTCACCCC DNA 2: GGGGTGAGTCACGCG for me?
6.72

// provenance: paper PMC3154423
